Subject Of Test: βAR kinase (Bos taurus)
Construct: βAR kinase was purified from bovine cerebral cortex; from tissue; host or cells: bovine cerebral cortex
Sequence (P21146 whole entry): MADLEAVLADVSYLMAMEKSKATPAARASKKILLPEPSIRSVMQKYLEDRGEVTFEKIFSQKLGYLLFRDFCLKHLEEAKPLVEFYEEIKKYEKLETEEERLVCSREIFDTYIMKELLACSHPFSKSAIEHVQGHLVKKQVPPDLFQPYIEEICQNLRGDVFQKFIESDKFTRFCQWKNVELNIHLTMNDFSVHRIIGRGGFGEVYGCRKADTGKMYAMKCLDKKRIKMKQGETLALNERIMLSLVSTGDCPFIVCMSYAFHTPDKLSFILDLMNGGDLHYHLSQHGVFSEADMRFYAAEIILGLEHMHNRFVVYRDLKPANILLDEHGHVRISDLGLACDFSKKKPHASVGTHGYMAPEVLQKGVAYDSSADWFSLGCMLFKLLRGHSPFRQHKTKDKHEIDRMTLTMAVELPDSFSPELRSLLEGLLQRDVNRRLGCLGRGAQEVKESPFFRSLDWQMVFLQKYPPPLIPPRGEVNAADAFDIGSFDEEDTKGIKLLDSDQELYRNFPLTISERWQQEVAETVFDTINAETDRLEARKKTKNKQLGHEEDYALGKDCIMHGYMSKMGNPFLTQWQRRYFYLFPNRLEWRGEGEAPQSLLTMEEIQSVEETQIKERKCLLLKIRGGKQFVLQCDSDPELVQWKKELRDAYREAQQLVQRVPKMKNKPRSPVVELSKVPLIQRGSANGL
Assay: Inhibition of β2AR phosphorylation by βAR kinase by synthetic peptides (Example III)
Assay type: biochemical, bovine
Test Settings: hamster β2AR peptides; ND = no significant inhibition at ˜500 μM; read-out: IC50 (μM), inhibition of β2AR phosphorylation by βAR kinase
No end group written: not given here.
Assay Endpoint: IC50 (µM)
Response body: numeric value in µM, unit text excluded.

GYSSNSNGKTDYMGEASGCQLGQEKESER [CT-2 (353-381)] = 142

For the next question, use this sequence.
# input sequence: KMWNFGNFWC [EI (97-106)] ; wanted: its IC50
300
